TARGET UNDER TEST: interaction between the integrin LFA-1 and its adhesion partner ICAM-1 (Homo sapiens, UniProt P20701)
Construct: Recombinant LFA-1 (100 μL of 0.7 μg/ml mL, ICOS Corporation) in D-PBS; purchased ICOS Corporation
Sequence (P20701 26-1170): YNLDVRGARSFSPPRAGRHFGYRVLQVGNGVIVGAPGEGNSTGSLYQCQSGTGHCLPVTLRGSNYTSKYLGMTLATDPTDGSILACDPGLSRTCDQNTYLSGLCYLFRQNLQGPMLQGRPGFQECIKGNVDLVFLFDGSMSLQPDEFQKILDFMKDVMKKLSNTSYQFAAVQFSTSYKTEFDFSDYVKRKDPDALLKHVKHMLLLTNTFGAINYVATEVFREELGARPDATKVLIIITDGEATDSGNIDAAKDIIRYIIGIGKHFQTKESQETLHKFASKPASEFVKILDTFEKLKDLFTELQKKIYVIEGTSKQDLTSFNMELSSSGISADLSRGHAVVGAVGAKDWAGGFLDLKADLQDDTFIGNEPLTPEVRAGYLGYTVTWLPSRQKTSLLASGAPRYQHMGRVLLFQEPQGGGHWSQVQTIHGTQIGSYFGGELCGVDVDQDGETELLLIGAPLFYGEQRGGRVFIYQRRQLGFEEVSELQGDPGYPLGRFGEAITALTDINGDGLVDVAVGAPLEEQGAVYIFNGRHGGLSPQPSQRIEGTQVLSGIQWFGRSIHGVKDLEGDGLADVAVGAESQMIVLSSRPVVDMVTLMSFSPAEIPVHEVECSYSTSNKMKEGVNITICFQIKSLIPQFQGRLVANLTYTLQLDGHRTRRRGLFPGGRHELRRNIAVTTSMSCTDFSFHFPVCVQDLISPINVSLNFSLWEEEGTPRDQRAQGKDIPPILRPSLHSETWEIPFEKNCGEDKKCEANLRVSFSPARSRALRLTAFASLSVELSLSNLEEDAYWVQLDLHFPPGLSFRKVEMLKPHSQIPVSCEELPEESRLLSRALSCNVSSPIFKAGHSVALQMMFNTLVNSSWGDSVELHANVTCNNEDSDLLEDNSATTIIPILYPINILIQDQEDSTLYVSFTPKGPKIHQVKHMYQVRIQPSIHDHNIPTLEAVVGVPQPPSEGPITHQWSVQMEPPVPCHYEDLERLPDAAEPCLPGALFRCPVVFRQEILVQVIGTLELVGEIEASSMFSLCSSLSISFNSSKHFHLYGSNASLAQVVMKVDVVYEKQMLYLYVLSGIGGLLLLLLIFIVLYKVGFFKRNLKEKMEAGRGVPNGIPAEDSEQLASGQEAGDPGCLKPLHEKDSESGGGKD
Sequence (P05107 23-769 partner): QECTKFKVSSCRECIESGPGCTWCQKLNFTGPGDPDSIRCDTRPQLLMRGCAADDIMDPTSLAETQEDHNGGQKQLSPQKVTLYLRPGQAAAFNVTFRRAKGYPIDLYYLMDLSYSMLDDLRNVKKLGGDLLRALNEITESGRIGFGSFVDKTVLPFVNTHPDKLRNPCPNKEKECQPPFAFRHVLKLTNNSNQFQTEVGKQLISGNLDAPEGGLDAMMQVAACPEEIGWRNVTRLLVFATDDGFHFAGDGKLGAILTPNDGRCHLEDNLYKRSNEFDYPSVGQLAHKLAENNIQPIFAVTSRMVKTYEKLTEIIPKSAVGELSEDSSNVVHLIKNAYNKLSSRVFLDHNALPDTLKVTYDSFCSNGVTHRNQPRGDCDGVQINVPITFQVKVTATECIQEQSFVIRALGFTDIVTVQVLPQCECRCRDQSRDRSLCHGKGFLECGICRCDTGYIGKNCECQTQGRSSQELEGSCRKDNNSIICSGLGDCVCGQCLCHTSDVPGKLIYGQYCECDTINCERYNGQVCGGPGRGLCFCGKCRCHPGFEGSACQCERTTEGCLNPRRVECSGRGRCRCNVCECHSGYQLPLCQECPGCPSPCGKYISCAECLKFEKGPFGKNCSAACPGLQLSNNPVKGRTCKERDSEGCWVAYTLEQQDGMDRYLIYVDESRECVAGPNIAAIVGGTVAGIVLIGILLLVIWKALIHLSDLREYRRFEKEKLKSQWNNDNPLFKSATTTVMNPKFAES
EXPERIMENT: ICAM-1/LFA-1 Biochemical Interaction Assay
Assay type: binding
EXPERIMENTAL PARAMETERS: 4 μM compound; recombinant LFA-1, biotinylated ICAM-1/Ig
OUTCOME MEASURE: % inhibition @ 4 μM (%)

What does the data say about its % inhibition @ 4 μM? Entry: O=C(/C=C/c1ccc(Sc2ccc(Cl)cc2Cl)c(Cl)c1)N1CCOCC1 [Example 7] 87

How about this molecule: O=C(/C=C/c1ccc(Sc2ccc(Cl)cc2Cl)c(Br)c1)N1CCOCC1 [Example 64] 81

How about this molecule: O=C(/C=C/c1ccc(Sc2ccccc2Br)c(Cl)c1)N1CCCCC1 [Example 19] 93

How about this molecule: CN(C)N=Cc1ccccc1Sc1ccc(/C=C/C(=O)N2CCOCC2)cc1Cl [Example 61] 88

How about this molecule: O=Cc1ccccc1Sc1ccc(/C=C/C(=O)N2CCOCC2)cc1Cl [Example 57] 90

====

TARGET UNDER TEST: interaction between the integrin LFA-1 and its adhesion partner ICAM-1 (Homo sapiens)
Construct: Recombinant LFA-1 (100 μL of 0.7 μg/ml mL, ICOS Corporation) in D-PBS; purchased ICOS Corporation
EXPERIMENT: ICAM-1/LFA-1 Biochemical Interaction Assay
Format: binding
EXPERIMENTAL PARAMETERS: 4 μM compound; recombinant LFA-1, biotinylated ICAM-1/Ig
OUTCOME MEASURE: % inhibition @ 4 μM (%)

Fill in the recorded % inhibition @ 4 μM for this compound, with interaction between the integrin LFA-1 and its adhesion partner ICAM-1 (Homo sapiens) as test system: CC(=O)N1CCN(C(=O)/C=C/c2ccc(Sc3ccccc3C)c(C(F)(F)F)c2)CC1 94

How about this compound: CCOC(=O)CN(C)Cc1ccccc1Sc1ccc(/C=C/C(=O)N2CCOCC2)cc1Cl 83

How about this compound: Cc1ccccc1Sc1ccc(/C=C/C(=O)N2CCOCC2)cc1C(F)(F)F 94

How about this compound: O=C(/C=C/c1ccc(Sc2ccc(Cl)cc2Cl)c(Cl)c1)N1CCN(CCO)CC1 79

How about this compound: O=C(/C=C/c1ccc(Sc2ccccc2Br)c(Cl)c1)N1CCCC(CO)C1 (stereo not shown) 88

How about this compound: O=C(/C=C/c1ccc(Sc2ccccc2Br)c(Cl)c1)N1CCC(O)CC1 86

How about this compound: Cc1ccccc1Sc1ccc(/C=C/C(=O)NCCN2CCOCC2)cc1C(F)(F)F 87

====

TARGET UNDER TEST: interaction between the integrin LFA-1 and its adhesion partner ICAM-1 (Homo sapiens, UniProt P20701)
Construct: Recombinant LFA-1 (100 μL of 0.7 μg/ml mL, ICOS Corporation) in D-PBS; purchased ICOS Corporation
EXPERIMENT: ICAM-1/LFA-1 Biochemical Interaction Assay
Assay type: binding
EXPERIMENTAL PARAMETERS: 4 μM compound; recombinant LFA-1, biotinylated ICAM-1/Ig
OUTCOME MEASURE: inhibition at 4 µM (%)

Past entries and their recorded results:
What does the data say about its inhibition at 4 µM? Entry: Cc1ccccc1Sc1ccc(/C=C/C(=O)NC2CC2)cc1C(F)(F)F 92

How about this compound: O=C(/C=C/c1ccc(Sc2ccc(Cl)cc2Cl)c(Cl)c1)NCCCN1CCCC1=O 85

How about this compound: O=C(O)CN1CCN(C(=O)/C=C/c2ccc(Sc3ccc(Cl)cc3Cl)c([N+](=O)[O-])c2)CC1 78

How about this compound: CC(=O)N1CCN(C(=O)/C=C/c2ccc(Sc3ccccc3C=O)c([N+](=O)[O-])c2)CC1 95

How about this compound: O=C(/C=C/c1ccc(Sc2ccc(Cl)cc2Cl)c(Cl)c1)NCCO 75

1 = CC(=O)N1CCCN(C(=O)/C=C/c2ccc(Sc3ccccc3Br)c(Cl)c2)CC1
2 = CC(C)(C)OC(=O)CN1CCN(C(=O)/C=C/c2ccc(Sc3ccc(Cl)cc3Cl)c([N+](=O)[O-])c2)CC1
Just curious, which one has the larger inhibition at 4 µM reading, 1 or 2 ? Choose, then provide that item's label. 1
